The reported numbers originate from patent US9504747B2.

assay: pKa measurement of the cationic lipid (TNS fluorescence vs pH); type: physicochemical; settings: probe TNS (fluorescent probe), Table 4; pKa of the cationic lipid of formula (I)
property: pKa

> print(dat)
                                smiles.data  property  endpoint.value
1  CCCCCC(=O)OCCCCCCCCCCOc1cc(CN(C)C)cc(OCCCCCCCCCCOC(=O)CCCCC)c1       pKa            5.66
2  CCCCCCCC(=O)OCCCCCCCCCCOC(=O)CCC(=O)OCc1cc(COC(=O)CCC(=O)OCCCCCCCCCCOC(=O)CCCCCCC)cc(CN(C)C)c1       pKa            6.02
3  CCC/C=C\CCCCCCC(=O)OCCCCCCOc1cc(CN(C)C)cc(OCCCCCCOC(=O)CCCCCC/C=C\CCC)c1       pKa            5.92
4  CCCCCCCCCC(=O)OCCCCCCCCOc1cc(CN(C)C)cc(OCCCCCCCCOC(=O)CCCCCCCCC)c1       pKa            5.96
